- assay.details: Inhibition of Escherichia coli BL21(DE3) methionine aminopeptidase in presence of Mn(II) metal ions
experimental.readout: pIC50
Numbers only, as −log10 of the molar value.

smiles.record | pIC50
Cc1ccsc1-c1ccc(O)c(O)c1 | 4.64
CCCc1ccsc1-c1ccc(O)c(O)c1 | 4.46
O=C(NC1CC1)c1ccc(-c2ccc(O)c(O)c2)s1 | 4.47
Oc1ccc(-c2ccc(Cl)s2)cc1O | 4.35

# ---- query compound ----
(Q) What value of pIC50 has been recorded for this entry: Oc1ccc(-c2sccc2CCBr)cc1O
(A) 4.65

These entries and their values trace back to ChEMBL document CHEMBL1140109.
